assay: Probe fluorescence ratio response to arachidonic acid relative to ADIFAB2
Assay type: binding
assay_setup: arachidonic acid; response relative to ADIFAB2
Catalogue of DR/DR AA readings, one per entry.
Lab note: record the figure alone, no unit after it.

molecule: 115D1, 72A (protein, listed as Rattus norvegicus, PEPTIDE (1)...(131) wild-type rat intestinal fatty acid binding protein) AFDGTWKVDRNENYEKFMEKMGINVVKRKLGAHDNLKLTITQEGNKFTVKESSNFRNIDVVFELGVDFAYSAADGTELTGTWTMEGNKLVGKFKRVDNGKELIAVREISGNELIDTYTYEGVEAKRIFKKE
reported_metric: DR/DR AA
observed: 1.17

molecule: 34G, 72A (protein, listed as Rattus norvegicus, PEPTIDE (1)...(131) wild-type rat intestinal fatty acid binding protein) AFDGTWKVDRNENYEKFMEKMGINVVKRKLGAHGNLKLTITQEGNKFTVKESSNFRNIDVVFELGVDFAYSAADGTELTGTWTMEGNKLVGKFKRVDNGKELIAVREISGNELIQTYTYEGVEAKRIFKKE
reported_metric: DR/DR AA
observed: 0.54

molecule: 72S 73W 74S (protein, listed as Rattus norvegicus, PEPTIDE (1)...(131) wild-type rat intestinal fatty acid binding protein) AFDGTWKVDRNENYEKFMEKMGINVVKRKLGAHDNLKLTITQEGNKFTVKESSNFRNIDVVFELGVDFAYSSWSGTELTGTWTMEGNKLVGKFKRVDNGKELIAVREISGNELIQTYTYEGVEAKRIFKKE
reported_metric: DR/DR AA
observed: 3.545

Turning now to a further record.
Query: # input molecule: 18I 31L 73G 72A (protein, listed as Rattus norvegicus, PEPTIDE (1)...(131) wild-type rat intestinal fatty acid binding protein) AFDGTWKVDRNENYEKFIEKMGINVVKRKLLAHDNLKLTITQEGNKFTVKESSNFRNIDVVFELGVDFAYSAGDGTELTGTWTMEGNKLVGKFKRVDNGKELIAVREISGNELIQTYTYEGVEAKRIFKKE ; wanted: its DR/DR AA
Response: 0.981
